Reference for the values: patent US20240041042A1

Test system: Triticum aestivum (TRZAS)
Type: in vivo
Conditions: crop plant compatibility, 20 g/ha, effect vs untreated controls
QUANTITY: Post-emergence action against TRZAS in % (%)
The reply should be a number in %, with the unit left off.

Solved entries:
MOLECULE | Post-emergence action against TRZAS in % [%]
COC(=O)CCOC(=O)COc1nn(-c2cccnc2C)c(-c2cncc(F)c2)c1Br | 0
Cc1ncccc1-n1nc(OCC(=O)OCc2ccccn2)c(Br)c1-c1cncc(F)c1 | 0
O=C(O)COc1nn(-c2ccccn2)c(-c2ccc(F)nc2)c1C1CC1(F)F (centres unmarked) | 0

Prompt: Data request, read-out Post-emergence action against TRZAS in %, for COC(=O)COc1nn(-c2ncccc2F)c(-c2cncc(F)c2)c1Br [Example I-49]
Response: 0

Prompt: Now try C[C@@H](Oc1nn(-c2ncccc2F)c(-c2ccc(F)nc2)c1Br)C(=O)O .
Response: 10

Prompt: Also need COC(=O)C1CCCN(C(=O)COc2nn(-c3ccccn3)c(-c3ccc(F)nc3)c2Br)C1 (centres unmarked) , thanks.
Response: 0

Prompt: Same read-out for COC(=O)C1CCCN1C(=O)COc1nn(-c2ccccn2)c(-c2ccc(F)nc2)c1Br (centres unmarked) ?
Response: 0

Prompt: Another molecule to look at: C[C@@H](Oc1nn(-c2ncccc2F)c(-c2cncc(F)c2)c1Cl)C(=O)O
Response: 20

Prompt: COCCOC(=O)COc1nn(-c2cccnc2C)c(-c2cncc(F)c2)c1Br , same question.
Response: 0

Prompt: Now the molecule O=C(O)CSc1nn(-c2ccccn2)c(-c2cncc(Cl)c2)c1Br
Response: 20

Prompt: Entry to check: CCOC(=O)COc1nn(-c2ncccc2C)c(-c2cncc(F)c2)c1Cl
Response: 20

* * *

Test system: Pharbitis purpurea (PHBPU)
Assay: Pre-emergence herbicidal action against PHBPU
Type: in vivo
Conditions: dosage 80 g/ha
Below: a set of entries, each annotated with reported Pre-emergence action against PHBPU in %.
Could you kindly put the unit after your number?

// below: answered compounds
INPUT SMILES | EXPERIMENTAL RESULT
CCOC(=O)[C@@H](C)Oc1nn(-c2ccccn2)c(-c2cncc(F)c2)c1Cl | 80%
C[C@@H](Oc1nn(-c2nc(F)ccc2F)c(-c2cncc(F)c2)c1Br)C(=O)O | 90%

Prompt: Any idea what its Pre-emergence action against PHBPU in % is? The compound is CCOC(=O)COc1nn(-c2ncccc2F)c(-c2cncc(F)c2)c1C1CC1
Response: 90%

Prompt: Lookup CCOC(=O)COc1nn(-c2nc(F)ccc2F)c(-c2cncc(F)c2)c1C1CC1
Response: 80%

Prompt: // repeat for C[C@@H](Oc1nn(-c2ccccn2)c(-c2cncc(F)c2)c1Br)C(=O)O and report
Response: 90%

* * *

Test system: Zea mays (ZEAMX)
Format: in vivo
Settings: crop plant compatibility, 80 g/ha, effect vs untreated controls
We begin with a simple list: items and their reported Post-emergence action against ZEAMX in %.
Quick reminder: number only, in %, skip the unit.

Study these solved cases before continuing.
MOLECULE | QUANTITY | EXPERIMENTAL RESULT
C[C@H](NC(=O)COc1nn(-c2ccnc(F)c2)c(-c2ccc(F)nc2)c1Br)C(=O)O | Post-emergence action against ZEAMX in % | 0
O=C(O)COc1nn(-c2ncccc2F)c(-c2ccnc(F)c2)c1Br | Post-emergence action against ZEAMX in % | 0
COC(=O)C(C)NC(=O)C(C)Oc1nn(-c2ccccn2)c(-c2ccc(F)nc2)c1Br (stereo not drawn) | Post-emergence action against ZEAMX in % | 20
O=C(O)COc1nn(-c2ncccc2C(F)(F)F)c(-c2cncc(F)c2)c1Br | Post-emergence action against ZEAMX in % | 0
C[C@@H](Oc1nn(-c2ncccc2Cl)c(-c2ccc(F)nc2)c1Br)C(=O)O | Post-emergence action against ZEAMX in % | 20

Continue with the molecule presented below.
Prompt: Please report the recorded Post-emergence action against ZEAMX in % for COC(=O)CN(C)C(=O)COc1nn(-c2ccnc(Cl)c2)c(-c2ccc(F)nc2)c1Br .
Response: 0
